# PROTOCOL_TEXT: chemical genetic growth profiling, strain panel (AID 1159580);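 note: tested at 20 µM; growth read once vehicle control cultures reached saturation at 30 °C; 1 = growth at the plate median or of vehicle wells; lower values mean less growth of the strain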
# STATED_CONDITIONS: S. cerevisiae deletion strains, growth OD, locus YHR027C, strain rpn1, active compounds read low
Among all 5,500 compounds or so, about 2,000 (36%) were called active. About 18% were inconclusive and are not listed. The list shows a part of the results.
// values below are reported normalized growth
PARAMETER_MEASURED: normalized growth

MOLECULE: O=c1c(-c2ccc(O)cc2)coc2cc(O)ccc12
RECORDED_RESULT: 0.995

MOLECULE: c1ccc2c(c1)CCCC2C1=NCCN1 (centres undefined)
RECORDED_RESULT: 1.01

MOLECULE: CCCCCCCCCCCCCc1ccco1
RECORDED_RESULT: 0.992

MOLECULE: COc1ccc(-c2coc3cc(O)ccc3c2=O)c(OC)c1O
RECORDED_RESULT: 0.989

MOLECULE: O=C(O)CCCc1ccccc1
RECORDED_RESULT: 1.01

MOLECULE: N[C@@H](Cc1ccc(N(CCCl)CCCl)cc1)C(=O)O
RECORDED_RESULT: 0.983

MOLECULE: O=C(O)c1cc2cc(F)ccc2[nH]1
RECORDED_RESULT: 0.977

MOLECULE: CCN(CC)C(=O)N1CCN(C)CC1
RECORDED_RESULT: 0.971

MOLECULE: CN(C)CCN(Cc1ccccc1)c1ccccn1
RECORDED_RESULT: 1
